Reference for the values: the supplement of paper PMC8149375

Tested on: CAKI-1
test-description: AUC of dose-response viability curve, drug + dasatinib, normalised to DMSO (arbitrary (AUC of normalised viability)); higher = less growth inhibition
reported-conditions: treatment: drug + dasatinib (fixed dose, not stated); 5 days
Classify: Yes when AUC of dose-response viability curve is strictly less than 2; No when AUC of dose-response viability curve is not.

Check out these entries, answers already filled in.
{"columns": ["compound", "answer-label"],
 "data": [
  ["CS(=O)(=O)O.N#CC1(c2ccc(NC(=O)c3cccnc3NCc3ccncc3)cc2)CCCC1 [Apatinib (YN968D1)] + Cc1nc(Nc2ncc(C(=O)Nc3c(C)cccc3Cl)s2)cc(N2CCN(CCO)CC2)n1 [dasatinib]", "No"],
  ["NC(=O)c1ccc(-c2nc(-c3ccc4c(c3)OCO4)c(-c3ccccn3)[nH]2)cc1 + Cc1nc(Nc2ncc(C(=O)Nc3c(C)cccc3Cl)s2)cc(N2CCN(CCO)CC2)n1 [dasatinib]", "No"],
  ["CC[C@H](Nc1ncnc2[nH]cnc12)c1nc2cccc(F)c2c(=O)n1-c1ccccc1 [CAL-101 (GS-1101)] + Cc1nc(Nc2ncc(C(=O)Nc3c(C)cccc3Cl)s2)cc(N2CCN(CCO)CC2)n1 [dasatinib]", "Yes"]
]}

Inquiry: Strictly below 2 in AUC of dose-response viability curve? Cc1[nH]c(/C=C2\C(=O)Nc3ccccc32)c(C)c1CCC(=O)O [TSU-68] + Cc1nc(Nc2ncc(C(=O)Nc3c(C)cccc3Cl)s2)cc(N2CCN(CCO)CC2)n1 [dasatinib]
Reply text: No

Inquiry: Lab log: compare recorded AUC of dose-response viability curve with 2; is it strictly lower for COc1cccc2cc(-c3nc([C@H]4CC[C@H](C(=O)O)CC4)n4ncnc(N)c34)[nH]c12 [OSI-027] + Cc1nc(Nc2ncc(C(=O)Nc3c(C)cccc3Cl)s2)cc(N2CCN(CCO)CC2)n1 [dasatinib] ?
Reply text: Yes

Inquiry: Problem: For the compound CC(=O)Nc1cccc(-n2c(=O)n(C3CC3)c(=O)c3c(Nc4ccc(I)cc4F)n(C)c(=O)c(C)c32)c1 + Cc1nc(Nc2ncc(C(=O)Nc3c(C)cccc3Cl)s2)cc(N2CCN(CCO)CC2)n1 [dasatinib] , is AUC of dose-response viability curve under 2?
Reply text: Yes

Inquiry: Is 2 strictly greater than the compound's reported AUC of dose-response viability curve? compound: COC[C@H]1OC(=O)c2coc3c2[C@@]1(C)C1=C(C3=O)[C@@H]2CCC(=O)[C@@]2(C)C[C@@H]1OC(C)=O [Wortmannin] + Cc1nc(Nc2ncc(C(=O)Nc3c(C)cccc3Cl)s2)cc(N2CCN(CCO)CC2)n1 [dasatinib]
Reply text: Yes

Inquiry: Please check: AUC of dose-response viability curve for CCCS(=O)(=O)Nc1ccc(F)c(C(=O)c2c[nH]c3ncc(-c4ccc(Cl)cc4)cc23)c1F [Vemurafenib (PLX4032)] + Cc1nc(Nc2ncc(C(=O)Nc3c(C)cccc3Cl)s2)cc(N2CCN(CCO)CC2)n1 [dasatinib] , strictly under 2 or not?
Reply text: No

----------
System: 786-O
test-description: AUC of dose-response viability curve, drug + dasatinib, normalised to DMSO (arbitrary (AUC of normalised viability)); higher = less growth inhibition
reported-conditions: treatment: drug + dasatinib (fixed dose, not stated); 5 days
Overview of reported AUC of dose-response viability curve across a group of molecules:

Use the examples below as a reference point.
{"columns": ["molecule", "val"],
 "data": [
  ["COc1ccc(-c2ccc3ncc4c(c3c2)n(-c2ccc(N3CCNCC3)c(C(F)(F)F)c2)c(=O)n4C)cn1.O=C(O)/C=C\\C(=O)O [NVP-BGT226] + Cc1nc(Nc2ncc(C(=O)Nc3c(C)cccc3Cl)s2)cc(N2CCN(CCO)CC2)n1", 0.402],
  ["Cc1ccc([N+](=O)[O-])cc1S(=O)(=O)N(C)/N=C/c1cnc2ccc(Br)cn12.Cl [PIK-75] + Cc1nc(Nc2ncc(C(=O)Nc3c(C)cccc3Cl)s2)cc(N2CCN(CCO)CC2)n1", 0.918]
]}

The molecule O=C(NOCC(O)CO)c1cc(Br)c(F)c(F)c1Nc1ccc(I)cc1F (stereo not drawn) + Cc1nc(Nc2ncc(C(=O)Nc3c(C)cccc3Cl)s2)cc(N2CCN(CCO)CC2)n1 on 786-O: AUC of dose-response viability curve was 1.75

----------
Tested on: CAKI-1
test-description: minimum viability across doses, drug alone, relative to DMSO (fraction); higher = less growth inhibition
reported-conditions: treatment: drug alone; 5 days
reported-property: minimum viability across doses
Could you respond with only the numeric value?

Solved cases below.
{"columns": ["molecule", "minimum viability across doses"],
 "data": [
  ["O=C1NC(=O)/C(=C/c2ccc3nccnc3c2)S1", 0.648],
  ["COc1cc2nccc(Oc3ccc(NC(=O)Nc4cc(C)on4)c(Cl)c3)c2cc1OC", 0.0726],
  ["Cl.N=C(N)NC(=N)NCCc1ccccc1 [Phenformin hydrochloride]", 0.821]
]}

Let us examine a further case.
Please fill in: minimum viability across doses reported for O=C1CCC(N2C(=O)c3ccccc3C2=O)C(=O)N1 (stereo not drawn) [Thalidomide] = 0.932

----------
The reader will find reported GI50, drug alone values listed item by item below.
Tested on: SN12C
test-description: GI50, drug alone; higher = less potent
reported-conditions: treatment: drug alone; 5 days
Provide the reading as a plain figure in µM.

Field GI50, drug alone (entry CC(C)(C)c1cnc(CSc2cnc(NC(=O)C3CCNCC3)s2)o1 ) reads 0.149

Input Cc1cc(Nc2cc(CN3CCOCC3)c3nc(C)c(Cc4ccc(Cl)cc4F)n3n2)[nH]n1 . Output GI50, drug alone: 3.84

# GI50, drug alone of COc1cc(Nc2ncc(F)c(Nc3ccc4c(n3)NC(=O)C(C)(C)O4)n2)cc(OC)c1OC.O=S(=O)(O)c1ccccc1 = 4.6

----------
System: CAKI-1
test-description: AUC of dose-response viability curve, drug + dasatinib, normalised to DMSO (arbitrary (AUC of normalised viability)); higher = less growth inhibition
reported-conditions: treatment: drug + dasatinib (fixed dose, not stated); 5 days
Values of AUC of dose-response viability curve strictly less than 2 map to condition met, and values of at least 2 map to condition not met.

The examples below pair each entry with its known result.
{"columns": ["compound", "answer-label"],
 "data": [
  ["COc1cc2c(Oc3ccc4[nH]c(C)cc4c3F)ncnc2cc1OCCCN1CCCC1 [Cediranib (AZD2171)] + Cc1nc(Nc2ncc(C(=O)Nc3c(C)cccc3Cl)s2)cc(N2CCN(CCO)CC2)n1", "condition met"],
  ["O=C1NC(=O)C(c2ccccc2[N+](=O)[O-])=C1Nc1ccc(O)c(Cl)c1 + Cc1nc(Nc2ncc(C(=O)Nc3c(C)cccc3Cl)s2)cc(N2CCN(CCO)CC2)n1", "condition not met"],
  ["Cc1cc(CN2CCN(c3c(Br)cnc4[nH]c(-c5ccc(N6CCN(C)CC6)cc5)nc34)CC2)no1 + Cc1nc(Nc2ncc(C(=O)Nc3c(C)cccc3Cl)s2)cc(N2CCN(CCO)CC2)n1", "condition met"],
  ["COc1ccc2c(Oc3ccc(NC(=O)c4c(C)n(CC(C)(C)O)n(-c5ccccc5)c4=O)nc3)ccnc2c1 [AMG458] + Cc1nc(Nc2ncc(C(=O)Nc3c(C)cccc3Cl)s2)cc(N2CCN(CCO)CC2)n1", "condition met"],
  ["Cc1cc(Nc2cc(N3CCN(C)CC3)nc(/C=C/c3ccccc3)n2)n[nH]1.O=C(O)[C@H](O)[C@@H](O)C(=O)O [ENMD-2076] + Cc1nc(Nc2ncc(C(=O)Nc3c(C)cccc3Cl)s2)cc(N2CCN(CCO)CC2)n1", "condition met"]
]}

Inquiry: Please state whether AUC of dose-response viability curve is below 2 for Cn1cnc2c(F)c(Nc3ccc(Br)cc3Cl)c(C(=O)NOCCO)cc21 [AZD6244 (Selumetinib)] + Cc1nc(Nc2ncc(C(=O)Nc3c(C)cccc3Cl)s2)cc(N2CCN(CCO)CC2)n1
Reply text: condition met

Inquiry: Consider the compound COc1cc2ncnc(Nc3cccc(Cl)c3)c2cc1OC [AG-1478 (Tyrphostin AG-1478)] + Cc1nc(Nc2ncc(C(=O)Nc3c(C)cccc3Cl)s2)cc(N2CCN(CCO)CC2)n1 . Is its AUC of dose-response viability curve strictly less than 2?
Reply text: condition not met

----------
Below: a set of entries, each annotated with reported AUC of dose-response viability curve.
System: 786-O
test-description: AUC of dose-response viability curve, drug alone (arbitrary (AUC of normalised viability)); higher = less growth inhibition
reported-conditions: treatment: drug alone; 5 days
API doc: respond with a numeric literal and nothing else, no unit.

A selection of reference data follows.
{"columns": ["compound", "tested-on", "reported-property", "val"],
 "data": [
  ["CCN(CC)CCCCNc1ncc2cc(-c3cc(OC)cc(OC)c3)c(NC(=O)NC(C)(C)C)nc2n1", "786-O", "AUC of dose-response viability curve", 2.06],
  ["Cc1c(NC(=O)OC[C@@H]2COCCN2)cn2ncnc(Nc3ccc4c(cnn4Cc4cccc(F)c4)c3)c12.Cl", "786-O", "AUC of dose-response viability curve", 3.22],
  ["COc1cc(Nc2ncc3c(n2)-c2ccc(Cl)cc2C(c2c(F)cccc2OC)=NC3)ccc1C(=O)O", "786-O", "AUC of dose-response viability curve", 1.47],
  ["Cc1cc2c(C(C)C)c(O)c(O)c(C=O)c2c(O)c1-c1c(C)cc2c(C(C)C)c(O)c(O)c(C=O)c2c1O", "786-O", "AUC of dose-response viability curve", 1.66],
  ["CN1CCN(CCOc2cc(OC3CCOCC3)c3c(Nc4c(Cl)ccc5c4OCO5)ncnc3c2)CC1", "786-O", "AUC of dose-response viability curve", 2.35],
  ["COc1cc(Nc2ncc(F)c(Nc3ccc4c(n3)NC(=O)C(C)(C)O4)n2)cc(OC)c1OC.O=S(=O)(O)c1ccccc1", "786-O", "AUC of dose-response viability curve", 2.46],
  ["Cc1cnc(NC(=O)Nc2cc(Br)c(C)cc2OC[C@@H]2CNCCO2)cn1", "786-O", "AUC of dose-response viability curve", 2],
  ["Nc1ccc(-c2ccc3ncc4ccc(=O)n(-c5cccc(C(F)(F)F)c5)c4c3c2)cn1", "786-O", "AUC of dose-response viability curve", 0.512],
  ["CS(=O)(=O)CCNCc1ccc(-c2ccc3ncnc(Nc4ccc(OCc5cccc(F)c5)c(Cl)c4)c3c2)o1.Cc1ccc(S(=O)(=O)O)cc1.Cc1ccc(S(=O)(=O)O)cc1 [Lapatinib Ditosylate (Tykerb)]", "786-O", "AUC of dose-response viability curve", 2.9],
  ["FC(F)c1nc2ccccc2n1-c1nc(N2CCOCC2)nc(N2CCOCC2)n1", "786-O", "AUC of dose-response viability curve", 1.95]
]}

In plain terms, COc1cc(Nc2ncc(F)c(Nc3ccc4c(n3)NC(=O)C(C)(C)O4)n2)cc(OC)c1OC [R406(free base)] has a documented AUC of dose-response viability curve of 2.21

// Cc1cc(C(=O)NOCCO)c(Nc2ccc(I)cc2F)n(C)c1=O : AUC of dose-response viability curve value = 1.78
